System: LXRa homodimer (NR concentration 270 nM)
Assay: PBM binding z-score (relative to random genomic background probes); higher = stronger binding; sequences stand for … in GC…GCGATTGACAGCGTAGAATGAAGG
Assign condition met to entries whose PBM binding z-score meets or exceeds 0.001; assign condition not met to the rest.

residue sequence: GCGACTGGGGCAAGGCAGGTTACCATAAGGTTGG
study target: LXRa homodimer (NR concentration 270 nM)
answer label: condition not met
--
residue sequence: TCATATAGGTAAAAGGCGAAAGTCGGTGTGGTAA
study target: LXRa homodimer (NR concentration 270 nM)
answer label: condition met
--
residue sequence: CCTTGCGGGTCACGAGGTTATAGCACGACGAGCG
study target: LXRa homodimer (NR concentration 270 nM)
answer label: condition met
--
residue sequence: CCGACTGGGGCGTAAGGTTACCATAAGCCAGCCC
study target: LXRa homodimer (NR concentration 270 nM)
answer label: condition not met
--
residue sequence: ATCTCTTGGTAAGACTCAGTTCAGTGAAGAACGC
study target: LXRa homodimer (NR concentration 270 nM)
answer label: condition met

Consider now this further sequence.
Hi, just wondering whether `GCAGACAGGTGAAACGCAGGTAGCTCAGGGTGGC` shows PBM binding z-score of 0.001 or higher.
condition not met

* * *

System: VDR:RXRa (NR concentration 270 nM, RXRa partner concentration 90 nM)
Assay: PBM binding z-score (relative to random genomic background probes); higher = stronger binding; sequences stand for … in GC…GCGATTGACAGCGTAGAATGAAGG
Property: PBM binding z-score; scope: individual sequences
Format: numeric value only, no unit, no commentary.

In the examples that follow, each entry is paired with its recorded PBM binding z-score.
residue sequence: TCAAATAGGTAAACAGGTGAAAGTCCGTAAGTTA
PBM binding z-score: 1.18
//
residue sequence: CTCGACAGGTCGGTTGAGGTGAGTATACGGATAA
PBM binding z-score: 0.149
//
residue sequence: TCTATTAGTTGAAGGGGAACCGACGAGTCCGTTT
PBM binding z-score: 1.13
//
residue sequence: CCTGCTAGGACATGGTCAGCTAATCTACAGTATG
PBM binding z-score: -0.684
//
residue sequence: CCTAGCAGGCCAGGGTCGCTCAAGCATTTCGCTT
PBM binding z-score: 0.8

Now for a further sequence.
Bench note: what PBM binding z-score did `TATCCTAGGTCATGCGGGCCAGTATAGTGTCGGC` show?
3.5

* * *

Test system: RARg homodimer (NR concentration 270 nM)
Assay: PBM binding z-score (relative to random genomic background probes); higher = stronger binding; sequences stand for … in GC…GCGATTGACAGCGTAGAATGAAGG
Each record gets a class by PBM binding z-score: lo = under 0.6, med = from 0.6 up to 3, hi = 3 and over

residue sequence: GCGACTAGGGCAAAGCAGGTTACCATAAGGTTGG
answer label: med
//
residue sequence: ACTTACGGGTCAACTAGGTTATAGCACGCGTATA
answer label: hi
//
residue sequence: CCTCCTGGGCCAAGGTCATTGATCAGTCAAAGCA
answer label: hi
//
residue sequence: CCTATTTGGTCAGGAGGTCACACACCGGATATGA
answer label: hi
//
residue sequence: CCGACTGGGGCAAACGTTACCATACTCAGTACGA
answer label: lo

Quick check: band for `GCTCGGAGGACAAGGTCGGAGCTTTGTCCGTAGA`
med

* * *

Tested on: PPARg:RXRa 90nM:30nM, anti-RXR (NR concentration 90 nM, RXRa partner concentration 30 nM)
Assay: PBM binding z-score (relative to random genomic background probes); higher = stronger binding; sequences stand for … in GC…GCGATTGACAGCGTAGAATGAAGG
observed property: PBM binding z-score
Format: numeric value only, no unit, no commentary.

In the examples that follow, each entry is paired with its recorded PBM binding z-score.
residue sequence: TAGCCTAGGTCATGGGCCAGTATACCACGCGAAC
observed property: PBM binding z-score
result value: 2.59

residue sequence: TCTTGTAGCTCAACAGGAGGTTAAGAAAGATCGA
observed property: PBM binding z-score
result value: 1.4

residue sequence: ACAGACAGGTGAGTGAAGGTAAGTCAGCTGGACG
observed property: PBM binding z-score
result value: -0.0489

residue sequence: AATACAGGGTCACTAAGCCAGAGTAGGTACGAAT
observed property: PBM binding z-score
result value: 3.83

residue sequence: TGACCAAGGTGAAGGTCGTTGATCCCTCTGTAGA
observed property: PBM binding z-score
result value: 2.49

Test system PPARg:RXRa 90nM:30nM, anti-RXR (NR concentration 90 nM, RXRa partner concentration 30 nM); read-out PBM binding z-score; what value for `GGAACGAGGGCAAAGTTAATAGCATCTGTCGACG` ?
6.67

Test system PPARg:RXRa 90nM:30nM, anti-RXR (NR concentration 90 nM, RXRa partner concentration 30 nM); read-out PBM binding z-score; what value for `CGTCAAAGTTCAAGGTAACATAACAGAAAGCAGC` ?
3.9

Test system PPARg:RXRa 90nM:30nM, anti-RXR (NR concentration 90 nM, RXRa partner concentration 30 nM); read-out PBM binding z-score; what value for `ACCTCTAGGTAAAGTTCAGTGAAAGATCGATAGA` ?
1.63

Test system PPARg:RXRa 90nM:30nM, anti-RXR (NR concentration 90 nM, RXRa partner concentration 30 nM); read-out PBM binding z-score; what value for `CGTCCAGGGTCAGCAGGTCAGTGAAAGCGACGTG` ?
2.92

Test system PPARg:RXRa 90nM:30nM, anti-RXR (NR concentration 90 nM, RXRa partner concentration 30 nM); read-out PBM binding z-score; what value for `CGTCCAAGGTCATAGGAGGTCAGGGAAGACAGAT` ?
4.83

Test system PPARg:RXRa 90nM:30nM, anti-RXR (NR concentration 90 nM, RXRa partner concentration 30 nM); read-out PBM binding z-score; what value for `GCTCGGAGGACAAGGTCAAAGCTTTGTCCGTAGA` ?
2.47

Test system PPARg:RXRa 90nM:30nM, anti-RXR (NR concentration 90 nM, RXRa partner concentration 30 nM); read-out PBM binding z-score; what value for `TATACAGGGTCAAAGACCAGAGTACGAATGTCGA` ?
5.01

* * *

Tested on: FXR:RXRa (NR concentration 270 nM, RXRa partner concentration 90 nM)
Assay: PBM binding z-score (relative to random genomic background probes); higher = stronger binding; sequences stand for … in GC…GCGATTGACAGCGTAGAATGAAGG
observed property: PBM binding z-score

In the examples that follow, each entry is paired with its recorded PBM binding z-score.
residue sequence: GCTTACGGTTCAAAGGTTATAGCATGAATAGAAT
result value: 4.43
//
residue sequence: ACTATTAGTTGAGACGAGCGCAACCGATAGGTTG
result value: -0.41
//
residue sequence: TTACCAAGGTGAGCTGAAGTCGTTGATCCAACTC
result value: -0.293
//
residue sequence: TCTTGTAGATCAGTAGGTTAAGAAAGCTGGCCAA
result value: 0.172

Bench note: what PBM binding z-score did `AGAATGCGGTTAAGATCAGGGAAACAGAATACAT` show?
-0.249

* * *

Tested on: RXRa homodimer (NR concentration 180 nM)
Experiment: PBM binding z-score (relative to random genomic background probes); higher = stronger binding; sequences stand for … in GC…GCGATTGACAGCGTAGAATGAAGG
Each record gets a class by PBM binding z-score: L = under 0.7, M = from 0.7 up to 3, H = 3 and over

Quick check: band for `GCGACTGGGGCGTCAGCAGGTTACCATAACTTAA`
L

Quick check: band for `ATCTCTAGGTAACCAAGTTCGGTGAATGCCGAAC`
L

Quick check: band for `TCTTGTAGATCAACAGGAGGATAAGAAAGATCGA`
L

* * *

Property: PBM binding z-score; scope: individual sequences
Tested on: PPARg:RXRa IVT, anti-PPARg (NR concentration 270 nM, RXRa partner concentration 90 nM)
Assay: PBM binding z-score (relative to random genomic background probes); higher = stronger binding; sequences stand for … in GC…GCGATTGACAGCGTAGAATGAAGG
Format: numeric value only, no unit, no commentary.

Bench note: what PBM binding z-score did `ACAGACAGGTGATGAAGGTAACTAAGGCTATCAT` show?
0.73

Bench note: what PBM binding z-score did `CCTACTGGGCCAAAAAGGTCATTAATGCCGATAA` show?
3.94

Bench note: what PBM binding z-score did `CCGACTGGGGCAAGGGTTACCATACTCAGTACGA` show?
4.93

Bench note: what PBM binding z-score did `AATACAGGGTCATCGTAGGCCTGAGTACGCACAG` show?
4.07

Bench note: what PBM binding z-score did `TTACCAAGCTGAAGGTCGTTGATCCCTCTGTAGA` show?
-0.224

Bench note: what PBM binding z-score did `TTTTGTAGATCAAGCAGGTTAAGAAAGCCTGAGT` show?
1.22

Bench note: what PBM binding z-score did `ATCTCTACGTAACAAGTTCAGTGAAAGAGAGGAC` show?
0.36

Bench note: what PBM binding z-score did `CGTCCAAGGTCATAGGACGTCAGTGAAGACAGAT` show?
3.41

Bench note: what PBM binding z-score did `ACTTACGGTTCAACGAGGTTATAGCACGCGTATA` show?
0.712

Bench note: what PBM binding z-score did `CGTCCAAGATCAAGGTCAGTGAAAGAGACTCGAA` show?
1.67
